target: T1, huNav1.7α (human, UniProt Q15858 1-1988); experiment: binding FACS, HEKa cells
T1 construct: HEK cells expressing the α subunit alone; also called HEKa; HEK huNav1.7α
Entries whose EC50 is below 40 nM take label 1; entries at or above 40 nM take label 0.

Worked cases, answers included:
Query block: Please check: EC50 for F010301462 (VHH, vs F0103275B05: S27P, I28V, S33R, S50Y, N53P, S56D, N93R) VHH: EVQLVESGGGLVQPGGSLRLSCAASGPVFNINRMAWYRRAPGKQRELVAYSTPGGDTNYADSVKGRFTISRDNAKRVYLQMNSLTPEDTAVYYCRALLQPSIYDISRTYWGQGTLVTVSS , strictly under 40 nM or not?
Result block: label 1

Query block: Threshold test, EC50 < 40 nM: F0103275B05 (parental)-FLAG-HIS6 (VHH, also called F01033275B05) VHH: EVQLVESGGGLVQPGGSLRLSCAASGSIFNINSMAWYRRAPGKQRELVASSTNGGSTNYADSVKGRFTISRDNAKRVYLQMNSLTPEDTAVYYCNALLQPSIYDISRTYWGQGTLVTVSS
Result block: label 1

Others:
Query block: Strictly below 40 nM in EC50? F010300948 (VHH, vs F0103275B05: S27P, I28V, S33R, N53P, N93R, A94W, T101I) VHH: EVQLVESGGGLVQPGGSLRLSCAASGPVFNINRMAWYRRAPGKQRELVASSTPGGSTNYADSVKGRFTISRDNAKRVYLQMNSLTPEDTAVYYCRWLLQPSIYDISRIYWGQGTLVTVSS
Result block: label 0

Query block: For this binder, is EC50 lower than 40 nM? F010301460 (VHH, vs F0103275B05: S27P, I28V, S33R, S50Y, N53P, N93R) VHH: EVQLVESGGGLVQPGGSLRLSCAASGPVFNINRMAWYRRAPGKQRELVAYSTPGGSTNYADSVKGRFTISRDNAKRVYLQMNSLTPEDTAVYYCRALLQPSIYDISRTYWGQGTLVTVSS
Result block: label 1

Query block: I'd appreciate it if you could check whether F010300659 (VHH, also called F0103275B05(S27P, I28V, S50Y, N53P, G55W, S56D, T57W, N93R, A94W)+FLAG3-HIS6) VHH: EVQLVESGGGLVQPGGSLRLSCAASGPVFNINSMAWYRRAPGKQRELVAYSTPGWDWNYADSVKGRFTISRDNAKRVYLQMNSLTPEDTAVYYCRWLLQPSIYDISRTYWGQGTLVTVSS has EC50 smaller than 40 nM.
Result block: label 1
